Provide the recorded Kd for the entries that follow.
- study-target: T1, human ActRIIB (human, UniProt Q13705 19-137, limits assumed)
- T1 construct: antigen in MSD-SET; also called ACVR2B; ActR2B
- T1 sequence: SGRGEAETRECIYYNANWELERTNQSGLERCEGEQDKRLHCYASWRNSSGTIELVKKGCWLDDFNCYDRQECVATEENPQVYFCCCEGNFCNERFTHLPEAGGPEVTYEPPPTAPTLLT
- assay-info: MSD-SET
Give bare numbers, in nM.

Study these solved cases before continuing.
{"columns": ["binder", "obs-value"],
 "data": [
  ["Antibody Ochsamaulsalat (antibody, V domains shown, full-length IgG) VH: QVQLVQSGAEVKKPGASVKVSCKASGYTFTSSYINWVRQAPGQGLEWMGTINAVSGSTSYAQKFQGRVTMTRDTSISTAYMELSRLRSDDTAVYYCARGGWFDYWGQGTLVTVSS VL: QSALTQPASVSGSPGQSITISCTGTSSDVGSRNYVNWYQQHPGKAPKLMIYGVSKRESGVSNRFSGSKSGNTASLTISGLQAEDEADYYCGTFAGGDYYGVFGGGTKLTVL", 0.01],
  ["Fasnetsküchla Fab (Fab, V domains shown, Fab) VH: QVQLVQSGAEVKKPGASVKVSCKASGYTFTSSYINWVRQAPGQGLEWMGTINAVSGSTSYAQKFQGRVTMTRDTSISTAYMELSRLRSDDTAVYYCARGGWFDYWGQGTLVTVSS VL: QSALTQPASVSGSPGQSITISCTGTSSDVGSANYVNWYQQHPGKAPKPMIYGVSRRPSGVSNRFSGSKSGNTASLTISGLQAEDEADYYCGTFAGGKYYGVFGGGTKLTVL", 0.026]
]}

Now look at this entry.
**Query** Find the recorded Kd belonging to Biiramooscht Fab (Fab, V domains shown, Fab) VH: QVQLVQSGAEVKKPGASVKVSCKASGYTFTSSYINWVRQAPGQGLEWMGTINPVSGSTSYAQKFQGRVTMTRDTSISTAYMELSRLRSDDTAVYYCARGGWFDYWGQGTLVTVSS VL: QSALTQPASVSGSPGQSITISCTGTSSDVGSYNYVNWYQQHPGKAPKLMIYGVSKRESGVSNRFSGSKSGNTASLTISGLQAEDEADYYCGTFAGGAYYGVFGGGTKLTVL and report it.
**Result** 0.021
